- tested.on: Recombinant human JARID1B/KDM5B (Homo sapiens, UniProt Q9UGL1)
- Construct: purchased Active Motif 31432; host or cells: Sf9 insect cells
- Sequence (Q9UGL1 whole entry): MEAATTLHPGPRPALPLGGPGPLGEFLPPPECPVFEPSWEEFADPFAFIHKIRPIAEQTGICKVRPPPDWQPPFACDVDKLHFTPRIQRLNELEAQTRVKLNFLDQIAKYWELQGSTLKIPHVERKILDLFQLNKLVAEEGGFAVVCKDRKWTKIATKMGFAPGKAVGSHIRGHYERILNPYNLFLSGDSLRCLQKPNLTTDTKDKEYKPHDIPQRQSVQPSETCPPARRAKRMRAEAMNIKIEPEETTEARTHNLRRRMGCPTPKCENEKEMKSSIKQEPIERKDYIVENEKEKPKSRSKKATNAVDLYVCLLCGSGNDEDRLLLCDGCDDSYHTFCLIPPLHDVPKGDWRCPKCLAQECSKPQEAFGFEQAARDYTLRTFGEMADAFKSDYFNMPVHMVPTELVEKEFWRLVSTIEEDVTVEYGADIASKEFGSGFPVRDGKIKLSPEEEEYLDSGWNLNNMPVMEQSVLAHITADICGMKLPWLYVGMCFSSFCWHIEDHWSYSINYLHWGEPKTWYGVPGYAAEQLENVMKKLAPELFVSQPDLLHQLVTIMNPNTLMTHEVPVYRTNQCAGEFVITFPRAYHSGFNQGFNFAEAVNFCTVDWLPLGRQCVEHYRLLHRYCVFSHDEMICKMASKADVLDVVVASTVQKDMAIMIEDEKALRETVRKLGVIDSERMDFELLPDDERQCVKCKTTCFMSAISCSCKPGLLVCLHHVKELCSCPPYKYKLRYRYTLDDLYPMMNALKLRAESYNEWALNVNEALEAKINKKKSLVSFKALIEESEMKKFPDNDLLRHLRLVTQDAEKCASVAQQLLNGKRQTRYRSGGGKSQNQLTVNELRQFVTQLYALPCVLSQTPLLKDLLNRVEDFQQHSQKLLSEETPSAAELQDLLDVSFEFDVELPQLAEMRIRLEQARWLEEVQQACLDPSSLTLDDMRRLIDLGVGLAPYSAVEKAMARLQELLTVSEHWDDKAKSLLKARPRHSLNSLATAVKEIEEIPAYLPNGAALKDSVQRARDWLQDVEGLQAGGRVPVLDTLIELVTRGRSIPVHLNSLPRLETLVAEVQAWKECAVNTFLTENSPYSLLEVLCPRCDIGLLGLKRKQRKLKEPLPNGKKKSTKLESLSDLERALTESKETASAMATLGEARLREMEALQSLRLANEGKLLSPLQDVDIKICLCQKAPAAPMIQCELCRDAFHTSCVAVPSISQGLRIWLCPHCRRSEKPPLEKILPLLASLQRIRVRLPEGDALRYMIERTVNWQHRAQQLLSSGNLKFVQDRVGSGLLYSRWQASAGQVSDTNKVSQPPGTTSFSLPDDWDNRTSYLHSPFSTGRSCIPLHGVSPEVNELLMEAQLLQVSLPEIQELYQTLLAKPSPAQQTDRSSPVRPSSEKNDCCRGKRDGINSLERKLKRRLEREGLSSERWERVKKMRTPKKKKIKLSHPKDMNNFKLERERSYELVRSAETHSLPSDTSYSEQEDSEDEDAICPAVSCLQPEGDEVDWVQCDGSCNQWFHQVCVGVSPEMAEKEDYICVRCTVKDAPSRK
- procedure.text: LANCE Ultra TR-FRET JARID1B (KDM5B) demethylase inhibition assay
- Assay type: biochemical
- test.context: 0.1 uM of test-compounds, FLAG-JARID1B, 500 nM biotinylated H3K4me3 peptide substrate, 30 min at room temperature
measured.endpoint: inhibition at 0.1 µM

Consider the following illustrative entries.
query_smiles=O=c1[nH]c(COc2ccc(F)c(Cl)c2)nc2c(-c3cscn3)nccc12 tested_on="Recombinant human JARID1B/KDM5B (Homo sapiens, UniProt Q9UGL1)" reported_value="20 to 50%"
query_smiles=O=c1[nH]c(CCc2ccccc2)nc2c(-c3csc(NCCO)n3)nccc12 tested_on="Recombinant human JARID1B/KDM5B (Homo sapiens, UniProt Q9UGL1)" reported_value="20 to 50%"
query_smiles=Cc1nc(-c2nccc3c(=O)[nH]c(COc4ccc(F)c(Cl)c4)nc23)cs1 tested_on="Recombinant human JARID1B/KDM5B (Homo sapiens, UniProt Q9UGL1)" reported_value="< 20%"
query_smiles=O=c1[nH]c(COc2ccc(F)c(Cl)c2)nc2c(-c3cnccn3)nccc12 tested_on="Recombinant human JARID1B/KDM5B (Homo sapiens, UniProt Q9UGL1)" reported_value="20 to 50%"

Request: Give the value of inhibition at 0.1 µM reported for the following: `O=c1[nH]c(COCc2ccccc2)nc2c(-c3csc(NC4CCN(Cc5ccccc5)CC4)n3)nccc12`
Result: < 20%

Request: Provide one value: measured inhibition at 0.1 µM of `NCCNc1nc(-c2nccc3c(=O)[nH]cnc23)cs1`
Result: 20 to 50%

Request: Identify measured inhibition at 0.1 µM corresponding to `Cn1cc(-c2cnn(-c3nccc4c(=O)[nH]cnc34)c2)cn1`
Result: < 20%

Request: Kindly indicate its recorded inhibition at 0.1 µM. Item: `O=c1[nH]c(COc2ccc(F)cc2)nc2c(-c3csc(NCCO)n3)nccc12`
Result: ≥ 50%

Request: Kindly indicate its recorded inhibition at 0.1 µM. Item: `CN(C)CCNc1nc(-c2nccc3c(=O)[nH]c(COc4cc(F)cc(F)c4)nc23)cs1`
Result: ≥ 50%

Request: Please report the measured inhibition at 0.1 µM for `CCOC(=O)c1nc(-c2nccc3c(=O)[nH]c(COc4ccc(F)c(Cl)c4)nc23)cs1`
Result: < 20%

Request: Please look at this molecule and report its inhibition at 0.1 µM: `O=c1[nH]c(COc2ccc(Cl)c(Cl)c2)nc2c(-c3csc(NCCO)n3)nccc12`
Result: ≥ 50%

Request: In one line, give reported inhibition at 0.1 µM of the entry `O=c1[nH]c(COc2ccc(F)c(Cl)c2)nc2c(-c3csc(NCCc4ccccc4Oc4ccccc4)n3)nccc12` .
Result: < 20%

Request: Dear colleague, please send me the reported inhibition at 0.1 µM for `CN1CCC(Nc2nc(-c3nccc4c(=O)[nH]c(CCc5ccccc5)nc34)cs2)CC1` when you can.
Result: 20 to 50%

Request: Identify measured inhibition at 0.1 µM associated with `O=c1[nH]c(COc2ccc(F)c(Cl)c2)nc2c(-c3cccc(Cl)n3)nccc12`
Result: < 20%

Request: Look up and state reported inhibition at 0.1 µM for `CN1CCN(Cc2ccc(-c3cnn(-c4nccc5c(=O)[nH]cnc45)c3)cc2)CC1`
Result: < 20%

Request: Provide only the value of recorded inhibition at 0.1 µM for `Nc1nn(-c2nccc3c(=O)[nH]cnc23)cc1-c1cnn(CCN2CCCC2)c1`
Result: 20 to 50%

Request: In one line, give reported inhibition at 0.1 µM of the entry `CN(C)CCNc1nc(-c2nccc3c(=O)[nH]c(COCc4ccccc4)nc23)cs1` .
Result: < 20%

###

- tested.on: Recombinant human JARID1B/KDM5B (Homo sapiens, UniProt Q9UGL1)
- Construct: purchased Active Motif 31432; host or cells: Sf9 insect cells
- procedure.text: LANCE Ultra TR-FRET JARID1B (KDM5B) demethylase inhibition assay
- Assay type: biochemical
- test.context: 0.1 uM of test-compounds, FLAG-JARID1B, 500 nM biotinylated H3K4me3 peptide substrate, 30 min at room temperature
measured.endpoint: inhibition at 0.1 µM

Observe how each entry below is paired with its result.
compound="O=c1[nH]cnc2c(-n3cc(-c4ccccc4Oc4ccccc4)cn3)nccc12 [Compound 10]" reported_value="< 20%"
compound="O=c1[nH]c(COc2ccc(F)c(Cl)c2)nc2c(-c3csc(NCCO)n3)nccc12 [Compound 81]" reported_value="≥ 50%"
compound="Nc1nn(-c2nccc3c(=O)[nH]cnc23)cc1-c1ccc(F)cc1 [Compound 23]" reported_value="≥ 50%"
compound="CCC(O)CNc1nc(-c2nccc3c(=O)[nH]c(COCc4ccccc4)nc23)cs1 (centres unmarked) [Compound 143]" reported_value="20 to 50%"
compound="CC(C)N(CCCCCNc1nc(-c2nccc3c(=O)[nH]c(COc4ccc(F)c(Cl)c4)nc23)cs1)C(C)C [Compound 120]" reported_value="20 to 50%"
compound="CN(C)CCNc1nc(-c2nccc3c(=O)[nH]c(COc4ccc(F)c(Cl)c4)nc23)cs1 [Compound 87]" reported_value="≥ 50%"
compound="CN1CCC(CNc2nc(-c3nccc4c(=O)[nH]cnc34)cs2)C1 (centres unmarked) [Compound 59]" reported_value="20 to 50%"

// next item, inhibition at 0.1 µM requested
Request: State its inhibition at 0.1 µM: Nc1nn(-c2nccc3c(=O)[nH]cnc23)cc1-c1cnn(CCN2CCOCC2)c1 [Compound 29]
Result: 20 to 50%

###

- tested.on: Recombinant human JARID1B/KDM5B (Homo sapiens, UniProt Q9UGL1)
- Construct: purchased Active Motif 31432; host or cells: Sf9 insect cells
- procedure.text: LANCE Ultra TR-FRET JARID1B (KDM5B) demethylase inhibition assay
- Type: biochemical
- test.context: 0.1 uM of test-compounds, FLAG-JARID1B, 500 nM biotinylated H3K4me3 peptide substrate, 30 min at room temperature
measured.endpoint: inhibition at 0.1 µM

compound="CN1CCC(Nc2nc(-c3nccc4c(=O)[nH]cnc34)cs2)CC1 [Compound 50]" tested_on="Recombinant human JARID1B/KDM5B (Homo sapiens, UniProt Q9UGL1)" reported_value="20 to 50%"
compound="Nc1nn(-c2nccc3c(=O)[nH]cnc23)cc1-c1cccnc1 [Compound 16]" tested_on="Recombinant human JARID1B/KDM5B (Homo sapiens, UniProt Q9UGL1)" reported_value="< 20%"
compound="O=c1[nH]cnc2c(-c3csc(NCCCO)n3)nccc12 [Compound 46]" tested_on="Recombinant human JARID1B/KDM5B (Homo sapiens, UniProt Q9UGL1)" reported_value="20 to 50%"
compound="Nc1nn(-c2nccc3c(=O)[nH]cnc23)cc1-c1cnn(C2CCNCC2)c1 [Compound 22]" tested_on="Recombinant human JARID1B/KDM5B (Homo sapiens, UniProt Q9UGL1)" reported_value="≥ 50%"
compound="CN(C)CCCNc1nc(-c2nccc3c(=O)[nH]c(COCc4ccccc4)nc23)cs1 [Compound 150]" tested_on="Recombinant human JARID1B/KDM5B (Homo sapiens, UniProt Q9UGL1)" reported_value="< 20%"

Request: Provide only the value of recorded inhibition at 0.1 µM for O=c1[nH]c(COc2cccc(-c3ccccc3)c2)nc2c(-c3csc(NCCO)n3)nccc12 [Compound 156]
Result: 20 to 50%

Request: Please give measured inhibition at 0.1 µM of the following entry: O=c1[nH]cnc2c(-c3csc(NCC4CCCO4)n3)nccc12 (stereo not drawn) [Compound 41]
Result: ≥ 50%

Request: Provide only the value of recorded inhibition at 0.1 µM for O=c1[nH]c(COc2ccc(Cc3ccccc3)cc2)nc2c(-c3nccs3)nccc12 [Compound 66]
Result: < 20%

Request: Give a short answer stating reported inhibition at 0.1 µM for O=c1[nH]c(COc2ccc(F)c(Cl)c2)nc2c(-c3ccccn3)nccc12 [Compound 80] .
Result: 20 to 50%

Request: Tell me measured inhibition at 0.1 µM for CN(C)CCNc1nc(-c2nccc3c(=O)[nH]cnc23)cs1 [Compound 43] please.
Result: 20 to 50%

###

- tested.on: Recombinant human JARID1B/KDM5B (Homo sapiens, UniProt Q9UGL1)
- Construct: purchased Active Motif 31432; host or cells: Sf9 insect cells
- procedure.text: LANCE Ultra TR-FRET JARID1B (KDM5B) demethylase inhibition assay
- Assay type: biochemical
- test.context: 0.1 uM of test-compounds, FLAG-JARID1B, 500 nM biotinylated H3K4me3 peptide substrate, 30 min at room temperature
measured.endpoint: inhibition at 0.1 µM

Record excerpt, results attached:
compound="CN1CCCC1CCNc1nc(-c2nccc3c(=O)[nH]c(COCc4ccccc4)nc23)cs1 (stereo not drawn) [Compound 152]" reported_value="< 20%"
compound="Nc1ncc(-c2nccc3c(=O)[nH]c(COc4ccc(F)c(Cl)c4)nc23)s1 [Compound 75]" reported_value="< 20%"
compound="O=c1[nH]c(COc2ccc(Cc3ccccc3)cc2)nc2c(-c3csc(Nc4ccccc4)n3)nccc12 [Compound 73]" reported_value="< 20%"

Request: For the compound CN(C)CCCNc1nc(-c2nccc3c(=O)[nH]c(COc4ccc(F)c(Cl)c4)nc23)cs1 [Compound 91] , give its reported inhibition at 0.1 µM.
Result: ≥ 50%

Request: For the compound CN1CCN(CCNc2nc(-c3nccc4c(=O)[nH]c(COCc5ccccc5)nc34)cs2)CC1 [Compound 151] , give its reported inhibition at 0.1 µM.
Result: < 20%

Request: Name the recorded inhibition at 0.1 µM of the item Nc1nn(-c2nccc3c(=O)[nH]cnc23)cc1-c1ccc(C(=O)N2CCOCC2)cc1 [Compound 21] in your answer.
Result: ≥ 50%

Reference source: patent US20170057955A1
